The reported measurements were obtained from patent US7276528B2.

# tested-system: Recombinant human eNOS (Homo sapiens)
# Construct: made in house; host or cells: E. coli (lysate)
# Sequence (P29474 whole entry): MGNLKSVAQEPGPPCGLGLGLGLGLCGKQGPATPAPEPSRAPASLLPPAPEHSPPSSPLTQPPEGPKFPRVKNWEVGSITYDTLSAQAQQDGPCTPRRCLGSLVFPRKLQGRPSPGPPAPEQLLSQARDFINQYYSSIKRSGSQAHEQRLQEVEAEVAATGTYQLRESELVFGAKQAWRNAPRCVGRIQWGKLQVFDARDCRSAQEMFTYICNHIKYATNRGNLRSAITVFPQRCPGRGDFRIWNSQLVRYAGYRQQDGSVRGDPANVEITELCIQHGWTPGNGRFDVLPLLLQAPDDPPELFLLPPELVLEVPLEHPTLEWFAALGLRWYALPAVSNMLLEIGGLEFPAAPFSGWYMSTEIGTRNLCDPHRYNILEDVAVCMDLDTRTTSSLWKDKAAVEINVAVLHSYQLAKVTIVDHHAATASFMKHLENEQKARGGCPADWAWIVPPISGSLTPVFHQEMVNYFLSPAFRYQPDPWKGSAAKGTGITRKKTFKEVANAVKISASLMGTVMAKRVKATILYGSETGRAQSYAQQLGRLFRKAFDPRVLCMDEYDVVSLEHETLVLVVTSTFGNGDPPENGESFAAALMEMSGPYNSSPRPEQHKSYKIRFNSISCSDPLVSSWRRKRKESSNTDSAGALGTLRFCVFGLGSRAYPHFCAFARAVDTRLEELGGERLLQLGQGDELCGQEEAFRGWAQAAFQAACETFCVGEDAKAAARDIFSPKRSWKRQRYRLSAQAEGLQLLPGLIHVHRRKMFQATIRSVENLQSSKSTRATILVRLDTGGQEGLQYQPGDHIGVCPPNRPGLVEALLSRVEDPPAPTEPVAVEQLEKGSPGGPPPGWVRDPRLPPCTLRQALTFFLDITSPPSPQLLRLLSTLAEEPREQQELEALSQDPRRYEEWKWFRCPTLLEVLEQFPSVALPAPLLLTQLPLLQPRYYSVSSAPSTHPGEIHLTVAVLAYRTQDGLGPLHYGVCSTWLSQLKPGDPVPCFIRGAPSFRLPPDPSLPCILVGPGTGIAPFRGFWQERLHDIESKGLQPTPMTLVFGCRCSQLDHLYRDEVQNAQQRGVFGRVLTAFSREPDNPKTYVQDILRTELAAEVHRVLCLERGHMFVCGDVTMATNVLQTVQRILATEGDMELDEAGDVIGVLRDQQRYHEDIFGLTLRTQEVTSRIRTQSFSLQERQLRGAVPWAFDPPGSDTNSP
# assay-explanation: Screen 2: recombinant human NO synthase inhibition, L-[3H]citrulline formation (eNOS)
# Assay type: biochemical
# test-context: recombinant human enzyme expressed in E. coli; 60 min pre-incubation with NADPH; 3 μM [3H]arginine
Counter-ions that a name gives are not always drawn.
assay-readout: IC50 (µM)

[P] CN(C)Cc1cccc(Oc2cc(Cl)ccc2C#N)c1 [Example 25, fumarate]
[Q] CNCc1cccc(Oc2cc(Cl)ccc2C#N)c1 [Example 10, fumarate]
[R] CNCc1ccc(Oc2cc(Cl)ccc2C#N)c2ccccc12 [Example 24, fumarate]
// ascending sort on recorded IC50 A ranking is expressed here by listing the labels in the requested order. Q, R, P
(Q: 0.34 µM, R: 5.4 µM, P: 44 µM)

* * *

# tested-system: Recombinant human nNOS (Homo sapiens, UniProt P29475)
# Construct: made in house; host or cells: E. coli (lysate)
# Sequence (P29475 whole entry): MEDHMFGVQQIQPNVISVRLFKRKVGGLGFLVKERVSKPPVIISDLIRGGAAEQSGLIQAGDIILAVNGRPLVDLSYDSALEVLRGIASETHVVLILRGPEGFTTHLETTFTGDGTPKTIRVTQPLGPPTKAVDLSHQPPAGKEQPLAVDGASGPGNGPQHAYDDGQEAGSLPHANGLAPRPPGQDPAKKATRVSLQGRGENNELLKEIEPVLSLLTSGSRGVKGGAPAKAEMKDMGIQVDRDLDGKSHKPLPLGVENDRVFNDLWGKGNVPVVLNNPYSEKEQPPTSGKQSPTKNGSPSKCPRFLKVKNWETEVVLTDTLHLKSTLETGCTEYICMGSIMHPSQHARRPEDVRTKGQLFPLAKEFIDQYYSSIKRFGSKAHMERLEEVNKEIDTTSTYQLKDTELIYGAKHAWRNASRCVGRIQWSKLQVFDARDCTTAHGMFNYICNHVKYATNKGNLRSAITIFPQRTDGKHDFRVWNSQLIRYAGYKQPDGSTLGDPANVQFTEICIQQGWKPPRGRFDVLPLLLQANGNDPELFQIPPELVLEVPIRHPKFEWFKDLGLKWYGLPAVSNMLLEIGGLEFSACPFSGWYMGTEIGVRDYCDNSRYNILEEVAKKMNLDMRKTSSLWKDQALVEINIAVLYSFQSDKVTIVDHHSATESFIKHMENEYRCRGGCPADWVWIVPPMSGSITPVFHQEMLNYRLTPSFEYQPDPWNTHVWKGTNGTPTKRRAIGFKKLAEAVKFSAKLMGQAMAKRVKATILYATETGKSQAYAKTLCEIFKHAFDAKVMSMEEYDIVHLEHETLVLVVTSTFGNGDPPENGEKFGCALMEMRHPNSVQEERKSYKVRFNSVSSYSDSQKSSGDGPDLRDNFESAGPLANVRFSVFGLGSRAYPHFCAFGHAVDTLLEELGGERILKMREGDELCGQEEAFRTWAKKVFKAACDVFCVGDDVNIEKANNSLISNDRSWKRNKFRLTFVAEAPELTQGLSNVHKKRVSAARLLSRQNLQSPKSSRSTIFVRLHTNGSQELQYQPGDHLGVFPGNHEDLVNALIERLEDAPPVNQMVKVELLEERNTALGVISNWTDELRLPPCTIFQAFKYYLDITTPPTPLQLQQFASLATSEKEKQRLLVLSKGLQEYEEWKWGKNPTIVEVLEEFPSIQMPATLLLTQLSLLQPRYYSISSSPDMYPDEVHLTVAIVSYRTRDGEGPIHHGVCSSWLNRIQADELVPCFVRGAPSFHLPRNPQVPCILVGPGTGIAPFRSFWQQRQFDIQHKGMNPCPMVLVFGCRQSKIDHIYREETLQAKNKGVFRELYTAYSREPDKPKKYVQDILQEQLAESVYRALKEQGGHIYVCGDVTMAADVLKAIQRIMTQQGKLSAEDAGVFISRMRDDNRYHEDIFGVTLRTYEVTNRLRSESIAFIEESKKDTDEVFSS
# assay-explanation: Screen 2: recombinant human NO synthase inhibition, L-[3H]citrulline formation (nNOS)
# Type: biochemical
# test-context: recombinant human enzyme expressed in E. coli; 60 min pre-incubation with NADPH; 3 μM [3H]arginine
Counter-ions that a name gives are not always drawn.
assay-readout: IC50 (µM)

- compound: "CNCc1cccc(Oc2cc(Cl)ccc2C#N)c1 [Example 10, fumarate]"
  unit: "µM"
  IC50: 0.0048

[A] CN(C)Cc1cccc(Oc2cc(Cl)ccc2C#N)c1 [Example 25, fumarate]
[B] CNCc1ccc(Oc2cc(Cl)ccc2C#N)c2ccccc12 [Example 24, fumarate]
Returns: the label, A or B , whose recorded IC50 is the lower number. Identify your selection by its label. B
(B: 0.039 µM, A: 0.2 µM)
